Target: T1, GDF8 (UniProt O14793 267-375)
T1 construct: also called myostatin
T1 sequence (looked up): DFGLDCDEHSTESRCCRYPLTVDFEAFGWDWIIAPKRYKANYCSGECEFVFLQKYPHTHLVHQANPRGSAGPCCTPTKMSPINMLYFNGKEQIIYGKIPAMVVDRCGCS
Assay: SPR (Biacore); receptor-Fc captured by anti-hFc antibody, ligand injected
# koff per entry
property-measured: koff (s⁻¹)

• ActRIIB(L79D 20-134)-hFc (Fc fusion) GRGEAETRECIYYNANWELERTNQSGLERCEGEQDKRLHCYASWRNSSGTIELVKKGCWDDDFNCYDRQECVATEENPQVYFCCCEGNFCNERFTHLPEAGGPEVTYEPPPTAPTGGGTHTCPPCPAPELLGGPSVFLFPPKPKDTLMISRTPEVTCVVVDVSHEDPEVKFNWYVDGVEVHNAKTKPREEQYNSTYRVVSVLTVLHQDWLNGKEYKCKVSNKALPVPIEKTISKAKGQPREPQVYTLPPSREEMTKNQVSLTCLVKGFYPSDIAVEWESNGQPENNYKTTPPVLDSDGSFFLYSKLTVDKSRWQQGNVFSCSVMHEALHNHYTQKSLSLSPGK = 0.00083
• ActRIIB(P129S, P130R 20-134)-hFc (Fc fusion) GRGEAETRECIYYNANWELERTNQSGLERCEGEQDKRLHCYASWRNSSGTIELVKKGCWLDDFNCYDRQECVATEENPQVYFCCCEGNFCNERFTHLPEAGGPEVTYEPSRTAPTGGGTHTCPPCPAPELLGGPSVFLFPPKPKDTLMISRTPEVTCVVVDVSHEDPEVKFNWYVDGVEVHNAKTKPREEQYNSTYRVVSVLTVLHQDWLNGKEYKCKVSNKALPVPIEKTISKAKGQPREPQVYTLPPSREEMTKNQVSLTCLVKGFYPSDIAVEWESNGQPENNYKTTPPVLDSDGSFFLYSKLTVDKSRWQQGNVFSCSVMHEALHNHYTQKSLSLSPGK = 0.00018
• ActRIIB(R64K 20-134)-hFc (Fc fusion) GRGEAETRECIYYNANWELERTNQSGLERCEGEQDKRLHCYASWKNSSGTIELVKKGCWLDDFNCYDRQECVATEENPQVYFCCCEGNFCNERFTHLPEAGGPEVTYEPPPTAPTGGGTHTCPPCPAPELLGGPSVFLFPPKPKDTLMISRTPEVTCVVVDVSHEDPEVKFNWYVDGVEVHNAKTKPREEQYNSTYRVVSVLTVLHQDWLNGKEYKCKVSNKALPVPIEKTISKAKGQPREPQVYTLPPSREEMTKNQVSLTCLVKGFYPSDIAVEWESNGQPENNYKTTPPVLDSDGSFFLYSKLTVDKSRWQQGNVFSCSVMHEALHNHYTQKSLSLSPGK = 4.71e-05
